Measurement record for 5-hydroxytryptamine receptor 2A (Rattus norvegicus, UniProt P14842); quantity recorded: IC50.
Numbers only, in nM.

Consider the reported IC50 for these compounds:
>  <compound>
CC1(C)CN(C2CC(c3ccsc3)c3ccc(Cl)cc32)CCN1 (single isomer, unassigned; (-))

>  <IC50 / nM>
1.9

$$$$
>  <compound>
CN1CCN(C2CC(c3ccc(F)cc3)c3ccccc32)CC1(C)C (stereo in doubt; 39)

>  <IC50 / nM>
5.1

$$$$
>  <compound>
CN1CCN(C2CC(c3ccc(F)cc3)c3ccc(Cl)cc32)CC1(C)C (stereo in doubt; (-)-28)

>  <IC50 / nM>
1.1

$$$$
>  <compound>
CN1CCN(C2CC(c3ccc(F)cc3)c3ccc(F)cc32)CC1(C)C (stereo in doubt; (-)-40)

>  <IC50 / nM>
1.9

$$$$
>  <compound>
CC1(C)CN(C2CC(c3ccc(F)cc3)c3ccc(Cl)cc32)CCN1 (single isomer, unassigned; (+))

>  <IC50 / nM>
3600

$$$$

Give IC50 for each listed item.
1. CC1(C)CN(C2CC(c3ccc(F)cc3)c3ccc(Cl)cc32)CCN1 (stereo in doubt; (-)-41)
2. CN1CCN(C2CC(c3ccc(F)cc3)c3ccccc32)CC1(C)C (single isomer, unassigned; (+))
3. CC1(C)CN(C2CC(c3ccc(F)cc3)c3ccc(C(F)(F)F)cc32)CCN1 (centres undefined)
4. CC1(C)CN(C2CC(c3ccsc3)c3ccc(Cl)cc32)CCN1 (stereo in doubt; (+)-54)
5. CN1CCN(C2CC(c3ccc(F)cc3)c3ccc(F)cc32)CC1(C)C (stereo in doubt; (+)-40)
6. CN1CCN(C2CC(c3ccccc3)c3ccc(Cl)cc32)CC1(C)C (single isomer, unassigned; (-))

Result:
1: 3.7; 2: 650; 3: 7.5; 4: 1100; 5: 360; 6: 4.4

----------
Task for the reader: assign each of the following compounds its reported ED50.
Species: Mus musculus
Assay: Antagonism of methyl phenidate-induced gnawing behavior in mice
Type: functional
Details: Mus musculus; read-out: ED50

>  <compound>
CN1CCN(C2CC(c3cccc(F)c3)c3ccc(Cl)cc32)CC1(C)C (centres undefined)

>  <ED50>
> 33 µmol/kg

$$$$
>  <compound>
CC1(C)CN(C2CC(c3ccc(F)cc3)c3ccc(Cl)cc32)CCN1 (stereo in doubt; 41)

>  <ED50>
6.7 µmol/kg

$$$$
>  <compound>
CN1CCN(C2CC(c3ccc(F)cc3)c3cccc(Cl)c32)CC1(C)C (centres undefined)

>  <ED50>
> 41 µmol/kg

$$$$

Give ED50 for each listed item.
1. CCC1(CC)CN(C2CC(c3ccc(F)cc3)c3ccc(Cl)cc32)CCN1C (centres undefined)
2. CN1CCN(C2CC(c3ccc(F)cc3)c3ccc(Cl)cc32)CC12CCC2 (centres undefined)
3. CC1(C)CN(C2CC(c3ccsc3)c3ccc(Cl)cc32)CCN1 (single isomer, unassigned; (-))
4. CC1(C)CN(C2CC(c3ccc(F)cc3)c3ccc(Cl)cc32)CCN1CCO (centres undefined)

Result:
["> 81 µmol/kg", "1 µmol/kg", "11 µmol/kg", "0.34 µmol/kg"]

Give ED50 for each listed item.
1. CN1CCN(C2CC(c3ccc(F)cc3)c3ccccc32)CC1(C)C (stereo in doubt; 39)
2. CN1CCN(C2CC(c3ccc(F)cc3)c3ccc(Cl)cc32)CC12CCCCC2 (centres undefined)

Result:
12 µmol/kg
> 80 µmol/kg
